Values compiled from patent US20180214428A1.

compounds and their reported EC50
system: IL-6; experiment: IL-6 inhibition in LPS-stimulated THP-1 monocytes (HTRF); assay type: cell-based, human; conditions: Homo sapiens; THP-1 cells, 500 ng/mL LPS, 22 h, HTRF IL-6 readout; 10-point dose-response from 10 μM
Please give a number only; it is taken to be in nM.

Use these answered entries as a reference point.
Enquiry: Looking for the measured EC50 of CCNCc1cncc(-c2cnc3[nH]nc(-c4cc5c(-c6ccccc6F)cccc5[nH]4)c3c2)c1 [Compound 52] , can you help?
Return: 2690

Enquiry: Looking for the measured EC50 of CC(C)(C)C(=O)Nc1cncc(-c2cnc3[nH]nc(-c4cc5ccccc5[nH]4)c3c2)c1 [Compound 235] , can you help?
Return: 350

Others:
Enquiry: Looking for the measured EC50 of CC(C)Nc1cncc(-c2cnc3[nH]nc(-c4cc5c(-c6ccccc6F)cccc5[nH]4)c3c2)c1 [Compound 57] , can you help?
Return: 753

###

tested on: IL-6; experiment: IL-6 inhibition in LPS-stimulated THP-1 monocytes (HTRF); format: cell-based, human; details: Homo sapiens; THP-1 cells, 500 ng/mL LPS, 22 h, HTRF IL-6 readout; 10-point dose-response from 10 μM
outcomeMeasure: pEC50
Lab note: report pEC50 as minus log10 of the concentration in molar units, number only.

Enquiry: Looking for the measured pEC50 of `c1cncc(-c2cnc3[nH]nc(-c4cc5c(-c6cccnc6)cccc5[nH]4)c3c2)c1` , can you help?
Return: 7.12

Enquiry: Looking for the measured pEC50 of `CS(=O)(=O)NCc1cc(F)cc(-c2cccc3[nH]c(-c4n[nH]c5ncc(-c6cncc(NC(=O)c7ccccc7)c6)cc45)cc23)c1` , can you help?
Return: 6.26

Enquiry: Looking for the measured pEC50 of `FC1(F)CCN(Cc2cncc(-c3cnc4[nH]nc(-c5cc6c(-c7ccoc7)cccc6[nH]5)c4c3)c2)C1` , can you help?
Return: 5.15

Enquiry: Looking for the measured pEC50 of `c1cc(-c2ccncc2)c2cc(-c3n[nH]c4ncc(-c5ccncc5)cc34)[nH]c2c1` , can you help?
Return: 5.38

Enquiry: Looking for the measured pEC50 of `CN1CCN(c2cccc3[nH]c(-c4n[nH]c5ncc(-c6cncc(NC(=O)C7CCCC7)c6)cc45)cc23)CC1` , can you help?
Return: 7.01

Enquiry: Looking for the measured pEC50 of `Nc1cncc(-c2cnc3[nH]nc(-c4cc5c(-c6ccccn6)cccc5[nH]4)c3c2)c1` , can you help?
Return: 6.58

Here is the next item to consider.
Enquiry: Looking for the measured pEC50 of `c1ccc(-c2cnc3[nH]nc(-c4cc5c(-c6ccncc6)cccc5[nH]4)c3c2)nc1` , can you help?
Return: 6.99

###

Tested on: IL-6
Test: IL-6 inhibition in LPS-stimulated THP-1 monocytes (HTRF)
Type: cell-based, human
Conditions: Homo sapiens; THP-1 cells, 500 ng/mL LPS, 22 h, HTRF IL-6 readout; 10-point dose-response from 10 μM
Procedure: Human monocyte cell line (THP-1 cells; Catalog # TIB-202, ATCC, Manassas, Va.) were cultured in Roswell Park Memorial Institute (RPMI) 1640 Medium (Catalog #21870-100, Buffalo, N.Y.) with 1% L-glutamine, 1% HEPES, 1% Sodium Pyruvate, 2% Sodium Bicarbonate supplemented with 100 units/mL penicillin, 50 μg/mL streptomycin, 2-mercaptoethanol (0.05 mM) [basal medium] and 10% fetal bovine serum (Catalog #16140089, Life Technologies, Carlsbad, Calif.) at 37° C. and 5% CO2. […]
molecules and their reported pEC50
Lab note: report pEC50 as minus log10 of the concentration in molar units, number only.

Use these answered entries as a reference point.
Enquiry: Looking for the measured pEC50 of FC1(F)CCN(Cc2cncc(-c3cnc4[nH]nc(-c5cc6ncccc6[nH]5)c4c3)c2)C1 [Compound 504] , can you help?
Return: 6.94

Enquiry: Looking for the measured pEC50 of CN(C)c1cncc(-c2cnc3[nH]nc(-c4cc5c(N6CCCCC6)cccc5[nH]4)c3c2)c1 [Compound 151] , can you help?
Return: 5.28

Enquiry: Looking for the measured pEC50 of CN1CCN(c2cccc3[nH]c(-c4n[nH]c5ncc(-c6cncnc6)cc45)cc23)CC1 [Compound 227] , can you help?
Return: 5.41

Enquiry: Looking for the measured pEC50 of CN1CCN(c2cccc3[nH]c(-c4n[nH]c5ncc(-c6ccncc6)cc45)cc23)CC1 [Compound 218] , can you help?
Return: 6.97

Enquiry: Looking for the measured pEC50 of CC(C)Nc1cncc(-c2cnc3[nH]nc(-c4cc5c(-c6cc(F)cc(NCCN(C)C)c6)cccc5[nH]4)c3c2)c1 [Compound 434] , can you help?
Return: 6.16

Enquiry: Looking for the measured pEC50 of CCNCc1cncc(-c2cnc3[nH]nc(-c4cc5c(-c6cc(F)cc(NCCN(C)C)c6)cccc5[nH]4)c3c2)c1 [Compound 428] , can you help?
Return: 6.59

Here is the next item to consider.
Enquiry: Looking for the measured pEC50 of Nc1cncc(-c2cnc3[nH]nc(-c4cc5c(-c6ccccc6F)cccc5[nH]4)c3c2)c1 [Compound 49] , can you help?
Return: 6.56
